# tested_target: T1, NHERF3_4, Q5T2W1
# T1 sequence (Q5T2W1 373-468, limits assumed, looked up): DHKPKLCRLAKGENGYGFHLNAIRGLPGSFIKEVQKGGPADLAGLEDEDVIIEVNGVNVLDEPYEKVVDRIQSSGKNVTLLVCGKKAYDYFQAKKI
# test: holdup assay
# Set-up: key: below the threshold = too weak to quantify, mostly under pKd 3.1 to 4
# recorded_conditions: plain residues with an end cap or a label only (N-terminal biotin on a linker: ttds)
quantity_measured: pKd

In: Answer with reported pKd of QRQARSETLV [HPV59-E6, Q81964]
Out: below the threshold

In: Quick one: give measured pKd for RLPKIKETTV [FRMPD4, Q14CM0]
Out: below the threshold

In: Determine from records and report pKd for SSLQSLETSV [ATP2B4, P23634]
Out: 3.63

In: Answer with the recorded pKd for the binder listed here: SGSRPSATVV [HPV73-E6, Q82005]
Out: 3.6

In: Give the measured pKd for EMDRRPATVV [PLCB4, Q15147]
Out: below the threshold

More entries:
In: For the binder DKDPHSETAL [TMIGD1, Q6UXZ0] , give its reported pKd.
Out: 3.52

In: Quick one: give measured pKd for RPLPRKVSQL [DOCK4, Q8N1I0]
Out: below the threshold

In: Read off the recorded pKd for FHPLGADSQV [SLC2A1, P11166]
Out: below the threshold

In: Tell us which pKd value is on record for EVVHTPETSV [SLC16A3, O15427]
Out: below the threshold

In: Provide one value: measured pKd of RHTTSTETAV [HPV30-E6, P36809]
Out: below the threshold
